# System: OVCAR-4
# test_protocol: NCI tumour cell line growth inhibition, 48 h
Calls of active or inactive are those of the source. Cut-off read from the data, not from the text of the source: active = GI50 up to about 1.1 µM and inactive = higher.
Outcome (select one): active, inactive

Reference set (3 entries):
molecule	discrete_label
N=C1C(=N)c2ccccc2-c2ccccc21	inactive
CCc1cn2c(/C=N/N=C(N)N)c(-c3cc(C)c(Cl)cc3Cl)nc2s1	inactive
Cc1ccc(/N=N/c2c(C)c(C#N)c(=S)n(C3OC(CO)C(O)C(O)C3O)c2-c2ccccc2)cc1 (configuration not stated)	inactive

**Q:** For this molecule, state the assay outcome: CCSc1n/c(=C\c2ccc(N(C)C)cc2)c2nnnn12
**A:** inactive

**Q:** Field entry: CCN(CC)CCNc1ccc2nnn3c4ccccc4c(=O)c1c23
**A:** inactive

**Q:** Field entry: CCOc1ccc(Nc2nc(N)nc(N)c2N=O)cc1
**A:** inactive

**Q:** Field entry: C=C1CC2[C@H](C)C(=O)CCC2(C)C2=C1C1CCC(C(C)CCC(=C)C(C)C(=O)O)C1(C)CC2=O (some centres not stated)
**A:** inactive

**Q:** Field entry: NC(=O)c1cccc(OCC(O)CO)c1 (configuration not stated)
**A:** inactive

**Q:** Field entry: C[n+]1c2ccccc2cc2c(CNC(CCCNC(=N)N)C(=O)O)cccc21 (configuration not stated)
**A:** inactive

**Q:** Field entry: COC(=O)/C=C/C1C2C3(CCC(C)C12C)OCCS3 (configuration not stated)
**A:** inactive

**Q:** Field entry: Cc1cccc(C)c1NC(=O)/C(CC(=O)CC(c1ccccc1)c1c(O)c2ccccc2oc1=O)=N/O (configuration not stated)
**A:** inactive

**Q:** Field entry: COc1cc2c(c(OC)c1OC)-c1ccc(OC)c(=O)cc1C(NC(=O)c1ccc(N=[N+]=[N-])cc1)CC2 (configuration not stated)
**A:** inactive

**Q:** Field entry: COc1ccc(OCC(=O)O)c2c1CCCC2=O
**A:** inactive

**Q:** Field entry: O=C(O)C1CCCCC1c1c2ccc(=O)c(O)c-2oc2c(O)c(O)ccc12 (configuration not stated)
**A:** inactive

**Q:** Field entry: O=C1[C@@H]2C(c3ccccc3F)=NO[C@@H]2C(=O)N1c1ccc(Cc2ccc(N3C(=O)[C@H]4C(c5ccccc5F)=NO[C@H]4C3=O)cc2)cc1
**A:** inactive

###

Documented GI50 across a set of compounds
# Test system: COLO 205
# test_protocol: NCI tumour cell line growth inhibition, 48 h
Activity calls are given as the source filed them. Cut-off read from the data, not from the text of the source: active = GI50 up to about 1.1 µM and inactive = higher.

Guide cases for GI50, answers given:
compound	value_type	result
COc1ccc2c(c1)CCc1c-2nc2cc3c(cc2c1O)OCO3	GI50	> 100 µM (inactive)
CC(=O)c1c2c(cc3c1CC1(C3)Cc3ccc4c(c3C1=O)CCC4)CCC2 (configuration not stated)	GI50	11 µM (inactive)
CC(C)=Cc1cc(C)c2c(O)cc(C)c3c2c1C(C)=C(O)C3=O	GI50	13 µM (inactive)

**Q:** Recorded GI50 for C=C1CC2[C@H](C)C(=O)CCC2(C)C2=C1C1CCC(C(C)CCC(=C)C(C)C(=O)O)C1(C)CC2=O (some centres not stated) , please?
**A:** 49.4 µM (inactive)

**Q:** Field entry: Cc1cc(N(CCC#N)CCC#N)ccc1C(/N=N/c1ccccc1)=N\NC(=O)c1ccccc1
**A:** 20.4 µM (inactive)

**Q:** Field entry: COc1ccc(/C=N/Nc2nc(=S)[nH]c3[nH]ncc23)cc1
**A:** 18.3 µM (inactive)

**Q:** Field entry: CNC(=O)NCCCC(NC(C)=O)C(=O)NCc1ccccc1 (configuration not stated)
**A:** > 100 µM (inactive)

###

# Tested on: HOP-62
# test_protocol: NCI tumour cell line growth inhibition, 48 h
Active and inactive are the calls of the source. No stated cut-off is given here; in the data, active = GI50 up to about 1.1 µM and inactive = higher. Where a SMILES comes first, the peptide text is derived from it. The star is where a group is joined. Cbz = O=C(OCc1ccccc1)*
Outcome (select one): active, inactive

Reference set (3 entries):
compound	discrete_label
COC1/C(=C\C(=O)OC(C)(C)C)c2ccccc2N1C(C)=O (stereo not drawn)	inactive
CC1(C)C[C@H]2[C@H](O)C(CO)=C3C(=O)[C@@H](O)[C@]3(C)[C@H]2C1	inactive
O=C(O)CCC(=O)c1ccc2ccc3cccc4ccc1c2c34	inactive

**Q:** For this compound, state the assay outcome: O=C(NCP(=O)(O)O)c1cccnc1
**A:** inactive

**Q:** Field entry: COC(=O)CCc1ccc2c(c1)C(=O)CC2
**A:** inactive

**Q:** Field entry: CCOC(=O)/C(=C\n1c(=O)sc2ccccc21)C(=O)c1ccccc1
**A:** inactive

**Q:** Field entry: CCCC[S+]([O-])CC(CO)NC(=O)/C=C/c1c(C)[nH]c(=O)[nH]c1=O (stereo not drawn)
**A:** inactive

**Q:** Field entry: CC(=O)N1C(OCc2ccccc2)CCN1c1ccccc1 (stereo not drawn)
**A:** inactive

**Q:** Field entry: CCSc1n/c(=C\c2ccc(N(C)C)cc2)c2nnnn12
**A:** inactive

**Q:** Field entry: CC(=O)OCC1OC(Nc2ccc3nc(C)n(-c4cccc(C)c4)c(=O)c3c2)C(OC(C)=O)C(OC(C)=O)C1OC(C)=O (stereo not drawn)
**A:** inactive

**Q:** Field entry: CCOC(=O)c1nc2cc(C(F)(F)F)ccc2nc1Nc1ccc(C(=O)NC(C(=O)OCC)C(=O)OCC)cc1
**A:** inactive

**Q:** Field entry: N=C(N)c1ccc(OCCCCCOc2ccc(C(=N)N)cc2)cc1
**A:** inactive

**Q:** Field entry: CCOC(=O)CCC(NC(=O)C(CC(=O)OC)NC(=O)OCc1ccccc1)C(=O)NC(CC(=O)OC)C(=O)NC(CCC(=O)OCC)C(=O)NC(CC(=O)OC)C(=O)NC(CCC(=O)OCC)C(=O)NC(CC(=O)OCC)C(=O)OCC (stereo not drawn) (Cbz-D(OMe)E(OEt)D(OMe)E(OEt)D(OMe)E(OEt)D(OEt)-OEt; configuration not given here)
**A:** inactive

**Q:** Field entry: CCOC(=O)C1=C(C)N(Cc2ccc(Cl)cc2Cl)C2(O)C(OC)CC(=O)C3C(=O)N(c4ccccc4)C(=O)C132 (stereo not drawn)
**A:** active

**Q:** Field entry: Oc1ccccc1/C=N/c1ccc(-c2nc3ccccc3[nH]2)cc1
**A:** inactive

**Q:** Field entry: COc1cc(Oc2nc3ccccc3nc2C(=O)O)cc(OC)c1OC
**A:** inactive

**Q:** Field entry: CCN(CC)CCNc1ccc2nnn3c4ccccc4c(=O)c1c23
**A:** inactive

**Q:** Field entry: O=C1/C(=C\c2ccc(-c3ccc(Cl)cc3Cl)o2)SC2NC(COc3ccc(Cl)cc3)=NN12 (stereo not drawn)
**A:** inactive

###

# Tested on: SF-268
# test_protocol: NCI tumour cell line growth inhibition, 48 h
Activity calls are given as the source filed them. No stated cut-off is given here; in the data, active = GI50 up to about 1.1 µM and inactive = higher.
value_type: GI50

Guide cases for GI50, answers given:
compound	value_type	result
CSc1nc(O)c2cn(Cc3ccccc3)nc2n1	GI50	> 100 µM (inactive)
COP(=O)(OC)C1=c2c(C)noc2=C2C=COC2C1=O (stereo unspecified)	GI50	> 100 µM (inactive)
C[C@]12CCC(=O)O[C@H]1CCCCO2	GI50	> 100 µM (inactive)
Cc1ccc(NCc2nnc3c(-c4ccccc4)nc4ccccc4n23)cc1	GI50	43.6 µM (inactive)
O=S(=O)(C1=CC(S(=O)(=O)c2ccccc2)CN(Cc2ccccc2)C1c1cccc2ccccc12)c1ccccc1 (stereo unspecified)	GI50	> 69 µM (inactive)

Could you now consider this next compound?
**Q:** Recorded GI50 for COc1ccc2c(c1)N1CCc3cc(OC)c(OC)cc3C1C2 (stereo unspecified) , please?
**A:** > 100 µM (inactive)

###

# Tested on: BT-549
# test_protocol: NCI tumour cell line growth inhibition, 48 h
The source made the active and inactive calls. No stated cut-off is given here; in the data, active = GI50 up to about 1.1 µM and inactive = higher.
Documented GI50 across a set of compounds

compound	GI50
O=C1/C(=C\c2ccc(-c3ccc(Cl)cc3Cl)o2)SC2NC(COc3ccc(Cl)cc3)=NN12 (stereo not drawn)	47 µM (inactive)
O=C(O)c1ccc(C(=O)c2ccccc2C(=O)O)cc1C(=O)O	> 100 µM (inactive)

**Q:** Recorded GI50 for COc1cc([N+](=O)[O-])ccc1N1C(=O)C2c3[nH]c4ccccc4c3C3CCC(C(C)(C)C)CC3C2C1=O (stereo not drawn) , please?
**A:** 32 µM (inactive)

**Q:** Field entry: Cc1ccc(/N=N/c2c(C)c(C#N)c(=S)n(C3OC(CO)C(O)C(O)C3O)c2-c2ccccc2)cc1 (stereo not drawn)
**A:** 19.6 µM (inactive)

**Q:** Field entry: Cc1c2c(Cl)c3c(c(Cl)c2c(C)c2c(Cl)c4c(c(Cl)c12)C(c1ccccc1)(c1ccccc1)C4(c1ccccc1)c1ccccc1)C(c1ccccc1)(c1ccccc1)C3(c1ccccc1)c1ccccc1
**A:** > 100 µM (inactive)

**Q:** Field entry: O=C1/C(=C/c2ccc(O)c(CN3CCCCC3)c2)CCC/C1=C\c1ccc(O)c(CN2CCCCC2)c1
**A:** 10.4 µM (inactive)

**Q:** Field entry: CN(C)CCn1c(=O)c2ccc(NCCN3CCNCC3)c3c(=O)c4ccccc4n(c1=O)c23
**A:** 7.33 µM (inactive)

**Q:** Field entry: C[C@]12O[C@@]3(C)O[C@@]3(C)[C@]3(C)O[C@]3(C)[C@@]1(C)O2
**A:** > 100 µM (inactive)

Reference source: ChEMBL document CHEMBL1201862
